# experimentalDetails: Biodistribution in sham-operated rats with and without excess cold compound
# Format: in vivo
# conditionInfo: male, Sprague Dawley, rat, lung, iv, 3 MBq, total radioactivity, 15 days post-op, 1 hour post-injection, +100-fold excess cold Compound 8, read-out: Activity in Lung, Mean
Numbered stars: 1 amine (or outer) side, 2 acyl side, 3 side chain; on linkers, the order of the positions; unused ones are H or OH. Bridge positions count the residues as written; N and C are the ends. Side chains are listed from the residue outwards. Peptide text beside a SMILES is read from it. * marks the point of attachment. X1 = C/C(=N\O)C(C)(C)NCCC(CCNC(C)(C)/C(C)=N/O)CCN*; Glutaryl = O=C(CCCC(=O)[*:2])[*:1]; X2 = NC(=O)COCC(=O)NCCOCCOCCOCCN*
readout: tissue uptake dose at 1 h (%ID)
Answer format: numeric, %ID implied, no suffix.

Data request, read-out tissue uptake dose at 1 h, for C/C(=N\O)C(C)(C)NCCC(CCNC(=O)CCCC(=O)NCCCC[C@@H]1NC(=O)CSC[C@@H](C(=O)NCCOCCOCCOCCNC(=O)COCC(N)=O)NC(=O)[C@H](Cc2ccccc2)NC(=O)[C@@H]2CSSC[C@H](NC1=O)C(=O)N[C@@H](CCCNC(=N)N)C(=O)NCC(=O)N[C@@H](CC(=O)O)C(=O)N2)CCNC(C)(C)/C(C)=N/O (stereo partly shown) [Compound 8] ({CH2CO}-K([Glutaryl-X1])CRGDCFC-X2; disulfide 2-6; thioether N-8)
0.38
